# growth inhibition per entry
- assay name: NCI Yeast Anticancer Drug Screen. Data for the mec2-1 strain (AID 157)
- measurement conditions: S. cerevisiae mec2-1 strain, at 50.0 µM (retest, dose inferred, filed as 5.0), active compounds read high
About 79,000 compounds went through this panel and 15% of them were active in at least one assay; those are over-represented in the sample as a whole.
Reply with just the number (in %).

COc1ccc2[nH]cc(C(=O)O)c2c1; 65
COc1ccc2ccnc(Cc3ccc(OCc4ccccc4)c(OC)c3)c2c1; 27
COc1ccc(/C(Cl)=C(\C=O)c2ccc(Cl)cc2)cc1OC; 35
CCCCN(CCCC)CC(O)c1cc(-c2ccc(Cl)cc2)nc2c(-c3ccccc3)cccc12 (configuration not stated); 13
CCOC(=O)C(=O)N1C(C)=C(C(=O)OCC)CC(C(=O)OCC)=C1C; 19

Any idea what growth inhibition was measured for `O=C(O)Cc1c[nH]c2ccccc12` ?
7

One more compound: CC1N(O)C(c2ccccc2)C(c2ccccc2)=[N+]1[O-] (configuration not stated)
14
